These measurements were taken from paper PMC9951978.

# ASSAY NAME: Stability at pH 7.4 in PBS in the presence of L-cysteine (50x)
# Assay type: physicochemical
# DETAILS: pH 7.4, 37 °C, 6 h
QUANTITY KIND: Stability (% compound ± SE), buffer + cysteine (50×) (%)

Please report Stability (% compound ± SE), buffer + cysteine (50×) for the following compound: O=C(O)c1ccc(-c2ssc(=S)c2-c2ccccc2)cc1 [Compound 9]
94.9

Please report Stability (% compound ± SE), buffer + cysteine (50×) for the following compound: O=C(O)COc1ccc(-c2cc(=S)ss2)cc1 [Compound 13]
96.6

Please report Stability (% compound ± SE), buffer + cysteine (50×) for the following compound: C=CCSCC(NC(C)=O)C(=O)O (centres unmarked) [Compound 1]
72.5

Please report Stability (% compound ± SE), buffer + cysteine (50×) for the following compound: NC(=S)c1ccc(C(=O)O)cc1 [Compound 17]
84.1

Please report Stability (% compound ± SE), buffer + cysteine (50×) for the following compound: O=C(O)c1ccc(-c2cssc2=S)cc1 [Compound 11]
82.6
